Measured IC50 by item
target: SHV-5 β-lactamase (Klebsiella pneumoniae, UniProt P0A3M1); construct: expressed as native untagged proteins; made in house; host or cells: E. coli BL21(DE3); assay: β-lactamase enzyme inhibition assay (nitrocefin substrate), SHV-5; assay type: biochemical
Sequence (P0A3M1 22-286): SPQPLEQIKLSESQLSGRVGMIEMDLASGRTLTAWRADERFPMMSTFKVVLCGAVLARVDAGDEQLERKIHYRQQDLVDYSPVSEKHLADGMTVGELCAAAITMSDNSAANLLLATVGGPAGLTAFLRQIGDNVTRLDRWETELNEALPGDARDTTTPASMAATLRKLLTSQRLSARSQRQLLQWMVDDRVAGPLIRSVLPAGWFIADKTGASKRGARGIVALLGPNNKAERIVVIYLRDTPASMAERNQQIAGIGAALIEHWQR
Structures can show the parent of a compound that is named as a salt.

Previously resolved entries follow.
O=C(N[C@@H](Cc1cccc(C(=O)O)c1O)B(O)O)c1ccc(CN2CCNCC2)cc1 [Example 5, Hydrochloride] ... > 1000 nM
Cl.NCc1ccc(C(=O)N[C@@H](Cc2cccc(C(=O)O)c2O)B(O)O)cc1 [Example 2, hydrochloride] ... > 1000 nM

// below: IC50 requested for another molecule
Prompt: I have this molecule here, Cl.NCCNCc1ccc(C(=O)N[C@@H](Cc2cccc(C(=O)O)c2O)B(O)O)cc1 [Example 15, hydrochloride] , and I need its recorded IC50.
Completion: > 1000 nM
